- Tested on: Staphylococcus aureus
- testDescription: Antimicrobial activity against Staphylococcus aureus ATCC 25923 by standard microdilution method
- Format: functional
assayMetric: MIC (µg/mL)
Answers are plain numbers, in µg/mL.

According to the records, this compound CCCCC[C@H]1CCCCCCCCCC(=O)O[C@@H]2[C@@H](O[C@@H]3O[C@H](C)[C@@H](OC(=O)[C@@H](C)CC)[C@H](O)[C@H]3O)[C@H](C)O[C@@H](O[C@H]3[C@H](O[C@H]4[C@H](O1)O[C@H](C)[C@@H](O)[C@@H]4O)O[C@H](COC(=O)[C@@H](C)CC)[C@@H](O)[C@@H]3O)[C@@H]2OC(=O)[C@H](C)[C@@H](C)O displays MIC of 32

###

- Tested on: Staphylococcus aureus
- testDescription: Antimicrobial activity against Staphylococcus aureus ATCC 25923 by standard microdilution method
- Type: functional
assayMetric: MIC

The cases that follow already have their MIC on record.
C/C=C(\C)C(=O)O[C@H]1[C@H](O)[C@@H](O)[C@H](O[C@@H]2[C@H]3OC(=O)CCCCCCCCC[C@H](CCCCC)O[C@@H]4O[C@H](C)[C@@H](O)[C@H](O)[C@H]4O[C@@H]4O[C@H](COC(=O)C(C)C)[C@@H](O)[C@H](O)[C@H]4O[C@H](O[C@H]2C)[C@@H]3OC(=O)[C@H](C)[C@@H](C)O)O[C@@H]1C; 16 µg/mL
CCCCC[C@H]1CCCCCCCCCC(=O)O[C@@H]2[C@@H](O[C@@H]3O[C@H](C)[C@@H](OC(=O)[C@@H](C)CC)[C@H](O)[C@H]3O)[C@H](C)O[C@@H](O[C@H]3[C@H](O[C@H]4[C@H](O1)O[C@H](C)[C@@H](O)[C@@H]4O)O[C@H](COC(=O)[C@@H](C)CC)[C@@H](O)[C@@H]3O)[C@@H]2OC(=O)[C@@H](C)[C@H](C)O; 128 µg/mL

Hey, quick one: what's MIC for each of these?
1. CCCCC[C@H]1CCCCCCCCCC(=O)O[C@H]2[C@H](O)[C@@H](CO)O[C@@H](O[C@H]3[C@H](O1)O[C@H](C)[C@H](O)[C@@H]3O)[C@@H]2O[C@@H]1O[C@@H](C)[C@H](OC(=O)C(C)C)[C@@H](O[C@@H]2O[C@@H](C)[C@H](O)[C@@H](O)[C@H]2O)[C@H]1OC(=O)[C@@H](C)CC
2. CCCCC[C@H]1CCCCCCCCCC(=O)O[C@H]2[C@H](O)[C@@H](CO)O[C@@H](O[C@H]3[C@H](O1)O[C@H](C)[C@H](O)[C@@H]3O)[C@@H]2O[C@@H]1O[C@@H](C)[C@H](OC(=O)[C@H](C)[C@@H](C)O)[C@@H](O[C@@H]2O[C@@H](C)[C@H](O)[C@@H](O)[C@H]2O)[C@H]1OC(=O)[C@@H](C)CC
3. CCCCC[C@H](CCCCCCCCCC(=O)OC[C@H]1O[C@H]2O[C@H]3[C@H](O[C@@H](CCCCC)CCCCCCCCCC(=O)O[C@H]4[C@H](O[C@@H]2[C@@H](O)[C@@H]1O)O[C@H](C)[C@@H](O)[C@@H]4O)O[C@H](C)[C@H](O)[C@@H]3O)O[C@@H]1O[C@H](C)[C@H](O)[C@H](O)[C@H]1O[C@@H]1O[C@H](CO)[C@@H](O)[C@H](O)[C@H]1O[C@@H]1O[C@H](C)[C@@H](O)[C@H](O)[C@H]1O

Given back:
1: 32 µg/mL; 2: 32 µg/mL; 3: > 256 µg/mL
